Give mequiv of Na+/kg for every item shown.
# Tested on: Mus musculus
# experiment_description: Diuretic activity in saline loaded mice, activity is expressed as the sodium present in urine as mean milli equivalent/kg per 5 hr at 64 mg/kg oral dose
# Format: functional

O=C(O)COc1cc2c3c(sc2c(Cl)c1Cl)CCCC3	0.45 0-5h
CC1=Cc2cc(OCC(=O)O)c(Cl)c(Cl)c2S1(=O)=O	4.34 0-5h
CC(C)Cc1cc2cc(OCC(=O)O)c(Cl)c(Cl)c2s1	1.29 0-5h
CCCc1cc2cc(OCC(=O)O)c(Cl)c(Cl)c2s1	1.74 0-5h
CCCCc1cc2cc(OCC(=O)O)c(Cl)c(Cl)c2s1	0.88 0-5h
O=C(O)COc1ccc(C(=O)c2cccs2)c(Cl)c1Cl [TICRYNAFEN]	3.31 0-5h

I'm hoping you can list mequiv of Na+/kg for every molecule here, please.
1. Cc1sc2c(Cl)c(Cl)c(OCC(=O)O)cc2c1C
2. CCC(O)c1cc2cc(OCC(=O)O)c(Cl)c(Cl)c2s1 (centres undefined)
3. Cc1cc2cc(OCC(=O)O)c(Cl)c(Cl)c2s1
4. CC(=O)c1cc2cc(OCC(=O)O)c(Cl)c(Cl)c2s1
5. CCCC1=Cc2cc(OCC(=O)O)c(Cl)c(Cl)c2S1(=O)=O
6. O=C(O)COc1cc2c(c(Cl)c1Cl)S(=O)(=O)C(C1CCCCC1)=C2
7. O=C(O)COc1cc2c(c(Cl)c1Cl)S(=O)(=O)C=C2
8. CCc1cc2cc(OCC(=O)O)c(Cl)c(Cl)c2s1

0.13 0-5h
3.89 0-5h
1.16 0-5h
1.16 0-5h
3.13 0-5h
1.25 0-5h
0.33 0-5h
2.07 0-5h
